biological target: Protein (capsid assembly) (Hepatitis B virus genotype D subtype ayw, UniProt P03146); test: Protein inhibition (capsid assembly inhibition), Table 1; format: biochemical
Sequence (P03146 whole entry): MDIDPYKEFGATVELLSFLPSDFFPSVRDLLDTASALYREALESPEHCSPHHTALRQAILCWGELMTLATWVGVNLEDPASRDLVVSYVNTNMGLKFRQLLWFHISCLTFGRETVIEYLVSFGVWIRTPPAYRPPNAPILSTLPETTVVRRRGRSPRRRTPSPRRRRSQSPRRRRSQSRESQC
pEC50: −log10 of the molar value.
property-label: pEC50

[[record]]
compound_structure = "Cc1cccc(NC(=O)N(Cc2nnc3n2CCCCC3)c2ccc3c(c2)OCO3)c1"
tgt = "Protein (capsid assembly) (Hepatitis B virus genotype D subtype ayw, UniProt P03146)"
measured_number = 5.89


###

Each record here notes measured pEC50.
target: Protein (capsid assembly) (Hepatitis B virus genotype D subtype ayw, UniProt P03146); assay: Protein inhibition (capsid assembly inhibition), Table 1; assay type: biochemical; details: NVR value of the same run in brackets; read-out: Protein EC50
pEC50: −log10 of the molar value.
property-label: pEC50

[[record]]
compound = "COc1ccc(N(Cc2nnc3n2CCOCC3)C(=O)Nc2ccc(F)c(Cl)c2)cc1 [Example 27]"
property_label = "pEC50"
measured_number = 5.64

[[record]]
compound = "COc1ccc(N(Cc2nnc(C)n2C(C)C)C(=O)Nc2ccc(F)c(Cl)c2)cc1 [Example 26]"
property_label = "pEC50"
measured_number = 5.21

[[record]]
compound = "COc1ccc(N(Cc2nnc3n2CCOCC3)C(=O)Nc2ccc(F)c(Cl)c2)cn1 [Example 40]"
property_label = "pEC50"
measured_number = 5.82

[[record]]
compound = "O=C(Nc1ccc(F)c(Cl)c1)N(Cc1nnc2n1CCCCC2)C1CCCC1 [Example 6]"
property_label = "pEC50"
measured_number = 5.92

[[record]]
compound = "O=C(Nc1ccc(F)c(Cl)c1)N(Cc1nnc2n1CCCCC2)c1ncco1 [Example 39]"
property_label = "pEC50"
measured_number = 5.24

